Biological target: Protein O-GlcNAcase (Homo sapiens)
Sequence (O60502 whole entry): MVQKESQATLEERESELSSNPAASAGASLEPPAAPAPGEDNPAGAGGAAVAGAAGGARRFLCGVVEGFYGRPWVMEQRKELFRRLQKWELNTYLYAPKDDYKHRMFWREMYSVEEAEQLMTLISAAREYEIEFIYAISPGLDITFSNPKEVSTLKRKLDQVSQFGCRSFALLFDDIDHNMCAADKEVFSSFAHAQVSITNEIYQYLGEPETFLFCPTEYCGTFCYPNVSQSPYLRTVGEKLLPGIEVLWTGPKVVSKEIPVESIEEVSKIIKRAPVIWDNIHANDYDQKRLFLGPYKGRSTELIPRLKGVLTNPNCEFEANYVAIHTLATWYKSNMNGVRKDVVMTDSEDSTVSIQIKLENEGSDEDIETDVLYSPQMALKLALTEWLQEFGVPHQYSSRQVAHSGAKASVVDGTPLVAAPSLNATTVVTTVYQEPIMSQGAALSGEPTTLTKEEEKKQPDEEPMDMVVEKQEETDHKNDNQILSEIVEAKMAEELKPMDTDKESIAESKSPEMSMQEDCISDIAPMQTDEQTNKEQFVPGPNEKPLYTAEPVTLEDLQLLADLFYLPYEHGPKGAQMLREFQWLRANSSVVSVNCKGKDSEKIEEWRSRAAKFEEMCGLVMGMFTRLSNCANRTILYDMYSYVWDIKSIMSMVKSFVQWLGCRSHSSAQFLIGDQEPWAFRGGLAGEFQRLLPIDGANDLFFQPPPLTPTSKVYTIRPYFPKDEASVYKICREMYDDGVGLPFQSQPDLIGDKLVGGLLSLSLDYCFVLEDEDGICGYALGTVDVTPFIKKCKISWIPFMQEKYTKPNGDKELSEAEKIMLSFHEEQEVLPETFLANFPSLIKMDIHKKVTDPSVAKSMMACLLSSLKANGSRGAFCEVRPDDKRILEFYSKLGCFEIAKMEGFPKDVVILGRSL
RESULT_TYPE: IC50

# lookup: IC50 of CCNC1=N[C@@H]2[C@@H](O)[C@H](O)[C@@H](C(F)F)O[C@@H]2S1
7.9 nM

###

Experiment: Apparent permeability of the compound
Format: ADME
Conditions: not told
RESULT_TYPE: Papp (×10⁻⁶ cm/s)
One number for each entry, in ×10⁻⁶ cm/s.

What value of Papp has been recorded for this entry: CCNC1=N[C@@H]2[C@@H](O)[C@H](O)[C@@H](C(F)F)O[C@@H]2S1
6.4
